experiment: in vitro; conditions: human
REPORTED_METRIC: CC50

# query: CC50 of entry Nc1ccn(C[C@@H](CO)OCP(=O)(O)O)c(=O)n1 [Cidofovir, cidofovir] > 100 µM

Please look at the following compound next.
Using the record for O=C(NN1C(=O)[C@@H]2[C@@H]3C=C[C@@H]([C@H]4C[C@@H]34)[C@@H]2C1=O)c1ccc(C(F)(F)F)cc1 [Tecovirimat, tecovirimat] , report its CC50. > 100 µM

----------
test: in vitro; conditions: African green monkey
REPORTED_METRIC: CC50

Record request: CC50 value, item `O=C(NN1C(=O)[C@@H]2[C@@H]3C=C[C@@H]([C@H]4C[C@@H]34)[C@@H]2C1=O)c1ccc(C(F)(F)F)cc1` > 100 µM
